Study Target: the molecule itself
Procedure Text: mass photometry
Reported Endpoint: stoichiometry N
Reply: number alone, nothing else.

Exercise: Tell me the measured stoichiometry N of His-NADK2^R378Q (enzyme, human, UniProt Q4G0N4 61-442, looked up) RADGGFRPSRVVVVAKTTRYEFEQQRYRYAELSEEDLKQLLALKGSSYSGLLERHHIHTKNVEHIIDSLRNEGIEVRLVKRREYDEETVRWADAVIAAGGDGTMLLAASKVLDRLKPVIGVNTDPERSEGHLCLPVRYTHSFPEALQKFYRGEFRWLWRQRIRLYLEGTGINPVPVDLHEQQLSLNQHNRALNIERAHDERSEASGPQLLPVRALNEVFIGESLSSRASYYEISVDDGPWEKQKSSGLNLCTGTGSKAWSFNINRVATQAVEDVLNIAKRQGNLSLPLNRELVEKVTNEYNESLLYSPEEPKILFSIQEPIANRVFSSSRQRCFSSKVCVRSRCWDACMVVDGGTSFEFNDGAIASMMINKEDELRTVLLEQ , please.
Key: 2
